The reported measurements were obtained from PubChem BioAssay (NCI).

Tested on: COLO 205 colon
Assay Notes: NCI tumour cell line growth inhibition, 48 h
Reported Property: TGI (µM)
Please state the figure in µM; there is no need to write the unit.

The molecule listed as `Cc1cc(S(=O)(=O)/N=C(/NN)Nc2ccc(Cl)cc2)c(S)cc1Cl` shows TGI equal to 33

The molecule listed as `CC(C)(C)OC(=O)c1ccc(NCC2=C(Br)C(=O)C=CC2=O)cc1` shows TGI equal to 33.6

The molecule listed as `Cc1cc(-c2nc3cccc(O)c3s2)ccc1N` shows TGI equal to 58.1

The molecule listed as `O=C(OCc1ccccc1)N1CCNCCNCCN(C(=O)OCc2ccccc2)CCNCC1` shows TGI equal to 26.8

The molecule listed as `Cc1cc(C)c(C#N)c(Sc2nc(C)c([N+](=O)[O-])c(C)c2C#N)n1` shows TGI equal to 5.55

The molecule listed as O=C1CSC(c2ccccc2Cl)N1c1nnc(Cn2cnnc2)o1 (stereo unspecified) shows TGI equal to 23.2
